The reported numbers originate from patent US20230066946A1.

Would you mind telling me the reported Pre-emergence action against STEME in % of each entry?
System: STEME
Assay: Pre-emergence herbicidal action against STEME
Format: in vivo, Stellaria media
Details: 1280 g/ha, scored visually after about 3 weeks vs untreated controls
Report field: quantity (unit follows the number).

A selection of reference data follows.
COMPOUND	TARGET OR TEST SYSTEM	Pre-emergence action against STEME in %
COC(=O)COc1nn(-c2ccccc2F)c(-c2ccccc2)c1C#N	STEME	90%
COC(=O)[C@@H](C)Oc1nn(-c2ccccc2)c(-c2ccc(F)cc2)c1C#N	STEME	100%
COC(=O)COc1nn(-c2ccc(F)cc2)c(-c2cccc(F)c2)c1I	STEME	100%

Parameter requested: Pre-emergence action against STEME in %. Apply to each item below.
1. C#Cc1c(OCC(=O)OC)nn(-c2ccccc2F)c1-c1ccccc1
2. CCOC(=O)COc1nn(-c2ccccc2)c(-c2ccc(F)cc2)c1Br
3. O=C(O)COc1nn(-c2ccccc2)c(-c2ccc(F)cc2)c1Br
4. O=C(COc1nn(-c2ccc(F)cc2)c(-c2cccc(F)c2)c1I)OCc1ccccc1
5. C=CCNC(=O)COc1nn(-c2c(F)cccc2F)c(-c2ccc(F)c(F)c2)c1Cl
6. COC(=O)COc1nn(-c2ccc(Cl)cc2)c(-c2ccc(F)cc2)c1Cl
7. COC(=O)C(C)Oc1nn(-c2ccccc2)c(-c2cc(F)cc(F)c2)c1Cl (stereo not shown)

80%
100%
100%
100%
90%
90%
100%

---

Test system: POLCO
Test: Pre-emergence herbicidal action against POLCO
Type: in vivo, Polygonum convolvulus
Conditions: 320 g/ha, scored visually after about 3 weeks vs untreated controls
METRIC NAME: Pre-emergence action against POLCO in %
Report field: quantity (unit follows the number).

A selection of reference data follows.
COMPOUND	Pre-emergence action against POLCO in %
C=CCNC(=O)COc1nn(-c2ccc(F)cc2)c(-c2cccc(F)c2)c1Br [III-015]	90%
COC(=O)COc1nn(-c2ccccc2F)c(-c2ccc(F)c(F)c2)c1Br [I-055]	90%
O=C(O)COc1nn(-c2c(F)cccc2F)c(-c2ccc(F)c(F)c2)c1Br [I-137]	100%

Parameter requested: Pre-emergence action against POLCO in %. Apply to each item below.
1. CCOC(=O)COc1nn(-c2ccccc2)c(-c2ccc(F)cc2)c1Br [I-056]
2. COC(=O)[C@@H](C)Oc1nn(-c2ccccc2)c(-c2ccc(F)cc2)c1C#N [I-130]
3. C#CCNC(=O)COc1nn(-c2ccccc2)c(-c2ccc(F)cc2)c1Br [III-006]
4. CCOC(=O)COc1nn(-c2ccc(F)cc2)c(-c2ccccc2)c1Br [I-072]
5. CCOC(=O)COc1nn(-c2ccc(F)cc2F)c(-c2ccc(F)cc2)c1Br [I-081]
6. O=C(O)COc1nn(-c2ccccc2)c(-c2ccc(F)cc2)c1Br [I-057]
7. C=CCNC(=O)COc1nn(-c2ccccc2F)c(-c2ccccc2)c1Br [III-003]

["80%", "90%", "90%", "90%", "100%", "90%", "100%"]

Parameter requested: Pre-emergence action against POLCO in %. Apply to each item below.
1. CCOC(=O)COc1nn(-c2ccccc2)c(-c2ccccc2)c1Br [I-070]
2. COC(=O)COc1nn(-c2ccccc2)c(-c2ccc(F)cc2)c1Br [I-101]

1. 80%
2. 100%

---

Test system: STEME
Assay: Pre-emergence herbicidal action against STEME
Type: in vivo, Stellaria media
Conditions: 1280 g/ha, scored visually after about 3 weeks vs untreated controls
METRIC NAME: Pre-emergence action against STEME in % (%)
One number for each entry, in %.

MOLECULE	TARGET OR TEST SYSTEM	UOM	Pre-emergence action against STEME in %
CCOC(=O)COc1nn(-c2ccc(F)cc2)c(-c2ccccc2)c1Br [I-072]	STEME	%	90

Parameter requested: Pre-emergence action against STEME in %. Apply to each item below.
1. O=C(COc1nn(-c2ccccc2)c(-c2ccc(F)cc2)c1Br)OCc1cccc(F)c1 [I-111]
2. COC(=O)C(C)Oc1nn(-c2ccccc2)c(-c2ccc(F)cc2)c1Br (stereo not drawn) [I-132]
3. CC(Oc1nn(-c2ccccc2)c(-c2ccc(F)cc2)c1Cl)C(=O)O (stereo not drawn) [I-139]
4. C[Si](C)(C)COC(=O)COc1nn(-c2ccccc2F)c(-c2ccc(F)c(F)c2)c1Br [I-102]
5. NCc1ccccc1.O=C(O)COc1nn(-c2cccc(F)c2)c(-c2ccccc2)c1I [II-13]
6. O=C(O)COc1nn(-c2c(F)cccc2F)c(-c2ccc(F)c(F)c2)c1Br [I-137]

1: 100; 2: 100; 3: 100; 4: 90; 5: 90; 6: 100

---

Tested on: STEME
Assay: Pre-emergence herbicidal action against STEME
Format: in vivo, Stellaria media
Settings: 1280 g/ha, scored visually after about 3 weeks vs untreated controls
METRIC NAME: Pre-emergence action against STEME in % (%)
One number for each entry, in %.

A selection of reference data follows.
MOLECULE	METRIC NAME	OBSERVED MEASUREMENT
COC(=O)COc1nn(-c2ccc(F)cc2)c(-c2ccc(F)cc2)c1Cl	Pre-emergence action against STEME in %	100
CCOC(=O)COc1nn(-c2ccc(F)cc2)c(-c2ccc(F)cc2)c1Br	Pre-emergence action against STEME in %	100
CCCN.O=C(O)COc1nn(-c2cccc(F)c2)c(-c2ccccc2)c1I	Pre-emergence action against STEME in %	90
COC(=O)COc1nn(-c2ccccc2)c(-c2ccc(F)cc2)c1Br	Pre-emergence action against STEME in %	100
CCOC(=O)COc1nn(-c2cc(F)c(F)cc2F)c(-c2cccc(F)c2)c1Cl	Pre-emergence action against STEME in %	100
COC(=O)COc1nn(-c2cccc(F)c2)c(-c2ccccc2)c1Cl	Pre-emergence action against STEME in %	80
CCOC(=O)COc1nn(-c2ccccc2F)c(-c2ccc(F)c(F)c2)c1Br	Pre-emergence action against STEME in %	100

Lab note: next molecule to report on.
# lookup: Pre-emergence action against STEME in % of COC(=O)C(C)Oc1nn(-c2ccccc2)c(-c2ccccc2F)c1Cl (centres unmarked)
90
